System: COLO 205 colon
PROCEDURE TEXT: NCI-60 one-dose screen, 48 h
RECORDED CONDITIONS: 10 µM unless noted
About 83,000 compounds went through this panel and 20% of them were active in at least one assay; those are over-represented in the sample as a whole. Active and inactive are the calls of the source. The calls were made as follows: active = growth percent below 10; inactive = the rest.
Your reply should match one of these outcome classes. Yes = active, No = inactive

[
  {
    "COMPOUND": "CCOC(=O)CCN(C(=O)Nc1ccccc1)C1CCCCC1",
    "LABEL CLASS": "No"
  },
  {
    "COMPOUND": "COc1ccn2c(C(C)=O)cc(C(=O)c3ccc4c(c3)Sc3ccccc3N4)c2c1",
    "LABEL CLASS": "Yes"
  },
  {
    "COMPOUND": "CCCCCCN1C(=O)/C(=c2\\sc3n(c2=O)C2C(NN=3)N(CC)C(=O)N2CC)c2ccccc21 (stereo unspecified)",
    "LABEL CLASS": "Yes"
  }
]

Q: For Cc1cc(O)c(C2=NN(c3ccc(S(N)(=O)=O)cc3)C(c3ccccc3O)C2)cc1Cl (stereo unspecified) , which call appears in the assay record?
A: Yes

Q: Can you look up the reported call for Oc1ccc(C#CCOc2ccccc2)cc1CNCCN(Cc1ccccn1)Cc1ccccn1 for me?
A: No

Q: Can you look up the reported call for O=C1c2ccccc2NC(n2sc3ccccc3c2=O)N1c1ccccc1 (stereo unspecified) for me?
A: No

Q: Query: recorded result category for C#Cc1cccc(NC(=O)c2ccc(NC(=O)C=C)cc2)c1 in this test
A: No

Q: Assay outcome for O=c1cc(SCc2ccccc2)nc[nH]1 : what was it?
A: No

====

Tested on: ACHN renal
PROCEDURE TEXT: NCI-60 one-dose screen, 48 h (100 = growth as untreated, 0 = no growth, -100 = all killed)
RECORDED CONDITIONS: 10 µM unless noted
About 83,000 compounds went through this panel and 20% of them were active in at least one assay; those are over-represented in the sample as a whole.
ASSAY METRIC: growth (%)
The reply should contain only the number, in %.

[
  {
    "MOLECULE": "C=CCc1cc(C)ccc1NC(C(=O)NCC(=O)OC)c1ccccc1 (stereo not given)",
    "ASSAY METRIC": "growth",
    "NUMERIC READOUT": 98.5
  },
  {
    "MOLECULE": "CN1CCN(Cc2ccc(NC(=O)c3ccc(C(C)(C)C)c(C#Cc4cnc5cccnn45)c3)cc2C(F)(F)F)CC1",
    "ASSAY METRIC": "growth",
    "NUMERIC READOUT": -75.2
  },
  {
    "MOLECULE": "NS(=O)(=O)c1ccc(-n2nc(-c3ccc(Cl)cc3)c3ccccc3c2=O)cc1",
    "ASSAY METRIC": "growth",
    "NUMERIC READOUT": 94.8
  },
  {
    "MOLECULE": "Cc1ccc(-c2nn(C)c(=O)c3noc(-c4ccc(C)cc4)c23)cc1",
    "ASSAY METRIC": "growth",
    "NUMERIC READOUT": 43.5
  },
  {
    "MOLECULE": "O=C(COc1ccc(/C=C2\\Cc3ccc(Cl)cc3C2=O)cc1)Nc1nc2ccccc2s1",
    "ASSAY METRIC": "growth",
    "NUMERIC READOUT": 94.2
  },
  {
    "MOLECULE": "COc1ccc(C2CC(c3ccc(Nc4nc(Nc5ccc(F)cc5)nc(Nc5ccc(Cl)cc5)n4)cc3)=NN2C(C)=O)cc1 (stereo not given)",
    "ASSAY METRIC": "growth",
    "NUMERIC READOUT": 91.7
  },
  {
    "MOLECULE": "Nc1nn(C(=O)Nc2ccc(Cc3ccccc3)cc2)c2ccc(Cl)cc12",
    "ASSAY METRIC": "growth",
    "NUMERIC READOUT": 39.9
  },
  {
    "MOLECULE": "O=C(N/N=C/[C@H](O)[C@@H](O)[C@@H](O)[C@H](O)CO)c1ccc(NC(=O)c2cccnc2)cc1",
    "ASSAY METRIC": "growth",
    "NUMERIC READOUT": 103
  }
]

Q: Using the record for C=C(C)C1CCC2(C)OC2C1 (stereo not given) , state its measured growth.
A: 104

Q: # return recorded growth for input Cc1cccc(NC2=C(Cl)C(=O)c3nc(C)ccc3C2=O)c1
A: -98.3
